Target: LK35.2-hPD-L1 cells / PE-labeled PD-1-Ig (Homo sapiens)
Construct: expressed in transfected cells; host or cells: LK35.2 mouse B cell line
Sequence (Q9NZQ7 19-290): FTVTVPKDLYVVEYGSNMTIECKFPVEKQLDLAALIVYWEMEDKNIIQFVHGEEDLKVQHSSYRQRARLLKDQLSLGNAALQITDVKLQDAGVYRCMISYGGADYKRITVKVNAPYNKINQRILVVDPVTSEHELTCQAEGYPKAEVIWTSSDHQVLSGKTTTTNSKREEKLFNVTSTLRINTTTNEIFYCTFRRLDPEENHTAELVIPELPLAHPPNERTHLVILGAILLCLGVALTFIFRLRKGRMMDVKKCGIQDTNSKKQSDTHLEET
Assay: LK35.2-hPD-L1 cell binding high-content screening assay
Format: cell-based
Conditions: cell binding assay, cell line not given; value given instead of cluster; read-out: CBA IC50 value
Positions of bridges follow the written chain, without caps; N, C: chain ends. Non-standard residues stand in square brackets, D forms with d. Residues, ends and D or L forms follow the SMILES beside them. Phe(3-CF3) = N[C@@H](Cc1cccc(C(F)(F)F)c1)C(=O)O; Hyp = O=C(O)[C@@H]1C[C@@H](O)CN1; NMeF = CN[C@@H](Cc1ccccc1)C(=O)O; NMeNle = CCCC[C@H](NC)C(=O)O; NMeA = CN[C@@H](C)C(=O)O; dThz = O=C(O)[C@H]1CSCN1; Dab = NCC[C@H](N)C(=O)O; Dap = NC[C@H](N)C(=O)O; Sar = CNCC(=O)O
Entries and their log10 of IC50
All values: log10 IC50 [nM].

Worked examples follow.
CCCC[C@H]1C(=O)N(C)[C@@H](CCCC)C(=O)N[C@@H](CO)C(=O)N[C@H](C(=O)NCC(N)=O)CSCC(=O)N[C@@H](Cc2ccc(O)cc2)C(=O)N(C)[C@@H](C)C(=O)N[C@@H](CCN)C(=O)N2CCC[C@H]2C(=O)N[C@@H](Cc2c[nH]cn2)C(=O)N[C@@H](CCC(=O)O)C(=O)N2C[C@H](O)C[C@H]2C(=O)N[C@@H](Cc2c[nH]c3ccccc23)C(=O)N[C@@H](C(C)C)C(=O)N[C@@H](Cc2c[nH]c3ccccc23)C(=O)N1C [Example 5097] ({CH2CO}-Y[NMeA][Dab]PHE[Hyp]WVW[NMeNle][NMeNle]SCG-NH2; thioether N-14)	1.87
CCCC[C@H]1C(=O)N(C)[C@@H](CCCC)C(=O)N[C@@H](CC(C)C)C(=O)N[C@H](C(=O)NCC(N)=O)CSCC(=O)N[C@@H](Cc2ccc(O)cc2)C(=O)N(C)[C@@H](C)C(=O)N[C@@H](CC(N)=O)C(=O)N2CCC[C@H]2C(=O)N[C@@H](CN)C(=O)N[C@@H](CCC(=O)O)C(=O)N2C[C@H](O)C[C@H]2C(=O)N[C@@H](Cc2c[nH]c3ccccc23)C(=O)N[C@@H](CO)C(=O)N[C@@H](Cc2c[nH]c3ccccc23)C(=O)N1C [Example 5071] ({CH2CO}-Y[NMeA]NP[Dap]E[Hyp]WSW[NMeNle][NMeNle]LCG-NH2; thioether N-14)	0.00
CCCC[C@H]1C(=O)N(C)CC(=O)N[C@@H](CC(=O)O)C(=O)N[C@@H](C(C)C)C(=O)N(C)[C@@H](Cc2ccccc2)C(=O)N[C@@H](Cc2ccc(O)cc2)C(=O)N(C)CC(=O)N[C@@H](Cc2cccc(C(F)(F)F)c2)C(=O)N[C@@H](Cc2ccc(O)cc2)C(=O)N[C@@H](CC(C)C)C(=O)N[C@H](C(=O)NCC(N)=O)CSCC(=O)N[C@@H](Cc2ccccc2)C(=O)N(C)[C@@H](Cc2ccccc2)C(=O)N1C [Example 3550] ({CH2CO}-F[NMeF][NMeNle][Sar]DV[NMeF]Y[Sar][Phe(3-CF3)]YLCG-NH2; thioether N-13)	2.17
CCCC[C@H]1C(=O)N2CSC[C@@H]2C(=O)N[C@@H](CC(=O)O)C(=O)N[C@@H](C(C)C)C(=O)N(C)[C@@H](Cc2ccccc2)C(=O)N[C@@H](Cc2ccc(O)cc2)C(=O)N(C)CC(=O)N[C@@H](Cc2c[nH]c3ccccc23)C(=O)N[C@@H](Cc2ccc(O)cc2)C(=O)N[C@@H](CC(C)C)C(=O)N[C@H](C(=O)NCC(N)=O)CSCC(=O)N[C@@H](Cc2ccccc2)C(=O)N(C)[C@@H](Cc2ccccc2)C(=O)N1C [Example 3600] ({CH2CO}-F[NMeF][NMeNle][dThz]DV[NMeF]Y[Sar]WYLCG-NH2; thioether N-13)	0.59

Could you now consider this next molecule?
May I ask what log10 of IC50 has been recorded for CCCC[C@H]1C(=O)N(C)[C@@H](CCCC)C(=O)N[C@@H](CC(C)C)C(=O)N[C@H](C(=O)NCC(N)=O)CSCC(=O)N[C@@H](Cc2ccccc2)C(=O)N(C)[C@@H](C)C(=O)N[C@@H](CC(N)=O)C(=O)N2CCC[C@H]2C(=O)N[C@@H](Cc2cnc[nH]2)C(=O)N[C@@H](CC(C)C)C(=O)N(C)CC(=O)N[C@@H](Cc2c[nH]c3ccccc23)C(=O)N[C@@H](CO)C(=O)N[C@@H](Cc2c[nH]c3ccccc23)C(=O)N1C [Example 5017] ({CH2CO}-F[NMeA]NPHL[Sar]WSW[NMeNle][NMeNle]LCG-NH2; thioether N-14) ?
1.11
